B1: TMEM175 (parent)
chain: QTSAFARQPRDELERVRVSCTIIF

Variants of: B1
Assay: protein stability index of a GFP-peptide fusion (GPS, HEK-293T) (PSI 1-6); higher = more stable;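 further: lentivirally expressed fusions sorted by FACS into six bins by GFP to DsRed ratio, PSI derived from sequencing read proportions per bin multiplied by bin number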
Settings: c terminus: a fixed tail appended
This section presents variants with their documented protein stability index values.

variant-designation: I23S
protein stability index: 2.69

variant-designation: T21M
protein stability index: 2.77

variant-designation: R10I
protein stability index: 2.06

variant-designation: P9N
protein stability index: 2.67

variant-designation: D11E
protein stability index: 2.73

variant-designation: T21E
protein stability index: 1.76

variant-designation: V16K
protein stability index: 1.97

variant-designation: R10V
protein stability index: 2.03

variant-designation: D11P
protein stability index: 2.6

variant-designation: A4H
protein stability index: 1.46

variant-designation: S19W
protein stability index: 1.39

variant-designation: V16F
protein stability index: 2

variant-designation: F5I
protein stability index: 1.72

variant-designation: Q1G
protein stability index: 3.41

variant-designation: T2N
protein stability index: 1.66

variant-designation: V16N
protein stability index: 2.04

variant-designation: I22T
protein stability index: 2.71

variant-designation: A6N
protein stability index: 2.57

variant-designation: E14N
protein stability index: 1.1

variant-designation: A6E
protein stability index: 3.06

variant-designation: C20D
protein stability index: 2.53

variant-designation: S3Y
protein stability index: 2.69

variant-designation: R7K
protein stability index: 2.08

variant-designation: R17N
protein stability index: 3.17

variant-designation: I22N
protein stability index: 3.05

variant-designation: I23R
protein stability index: 2.21

variant-designation: I23Y
protein stability index: 2.6

variant-designation: S19T
protein stability index: 3.22

variant-designation: R15F
protein stability index: 2.54

variant-designation: R17H
protein stability index: 2.73

variant-designation: V18H
protein stability index: 1.83

variant-designation: C20R
protein stability index: 3.05

variant-designation: Q8Y
protein stability index: 2.14

variant-designation: E12K
protein stability index: 2.07

variant-designation: I23M
protein stability index: 2.91

variant-designation: Q8D
protein stability index: 2.12

variant-designation: R17P
protein stability index: 2.09

variant-designation: E12H
protein stability index: 2.73

variant-designation: A6D
protein stability index: 2.35

variant-designation: S3L
protein stability index: 1.05

variant-designation: F5A
protein stability index: 1.75

variant-designation: T21N
protein stability index: 2.7

variant-designation: A4E
protein stability index: 2.9

variant-designation: Q1M
protein stability index: 1.64

variant-designation: A6H
protein stability index: 2.09

variant-designation: Q8H
protein stability index: 2.68
